Catalogue of protein stability index values
B1: SPOPL (parent)
chain: PDDKLTLFCEVSVVQDSVNISGHT

Variants of: B1
Protocol Description: protein stability index of a GFP-peptide fusion (GPS, HEK-293T) (PSI 1-6); higher = more stable;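 also: lentivirally expressed fusions sorted by FACS into six bins by GFP to DsRed ratio, PSI derived from sequencing read proportions per bin multiplied by bin number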
Condition Label: c terminus: a fixed tail appended
Measurement Type: protein stability index

1) PDDKLTLFCEVSVVQVSVNISGHT :: 3.7
2) PDDKLCLFCEVSVVQDSVNISGHT :: 1.81
3) PDDRLTLFCEVSVVQDSVNISGHT :: 1.79
4) PYDKLTLFCEVSVVQDSVNISGHT :: 1.38
5) PDDKLTLFCEVSVLQDSVNISGHT :: 1.71
6) PDDKLTLFCEVSVVQDGVNISGHT :: 2
7) PDDKLTLFGEVSVVQDSVNISGHT :: 4.42
8) PDDKLTLFCEVSVVQDAVNISGHT :: 2.29
9) FDDKLTLFCEVSVVQDSVNISGHT :: 2.36
10) PDDKLTLFCEVSVVQDSVNISPHT :: 2.07
11) PDDKLTLFCEVSVVQTSVNISGHT :: 1.53
12) PDDKLTLFCEVSNVQDSVNISGHT :: 4.03
13) VDDKLTLFCEVSVVQDSVNISGHT :: 1.36
14) PDDKLTLFCEVWVVQDSVNISGHT :: 1.98
15) PDDKLTLFCNVSVVQDSVNISGHT :: 2.74
16) PDDKLTLRCEVSVVQDSVNISGHT :: 2.77
17) PDDKLTLFCEVSWVQDSVNISGHT :: 2.73
18) PDDKLTLFCEVSVVQKSVNISGHT :: 1.66
19) PDDKWTLFCEVSVVQDSVNISGHT :: 1.26
20) PDDKLTLFCGVSVVQDSVNISGHT :: 2.52
21) PDDKLTLFCEVRVVQDSVNISGHT :: 2.32
22) PDDKLTLFCQVSVVQDSVNISGHT :: 2.27
23) PDDKLTLFCWVSVVQDSVNISGHT :: 2.53
24) PDDKLTLFCEVSVVQDSVNISGCT :: 2
25) PDDKLTLFCVVSVVQDSVNISGHT :: 3.33
26) PDDKLTDFCEVSVVQDSVNISGHT :: 4.88
27) PDDKLTLFCEVNVVQDSVNISGHT :: 2.79
28) PDDKLTLFCEVSVVQDSVNISCHT :: 2.59
29) PDDKLTLFCEVSVVQDSVNYSGHT :: 2.18
30) PDDKLTLFCEVSVVQDSANISGHT :: 2.83
31) PDDKLTLFCEVSVVQDQVNISGHT :: 2.07
32) PDDKLTLFCEKSVVQDSVNISGHT :: 4.85
33) PDDLLTLFCEVSVVQDSVNISGHT :: 2.39
34) PDDKLTLFCEVHVVQDSVNISGHT :: 1.71
35) PDPKLTLFCEVSVVQDSVNISGHT :: 2.5
36) PDDKTTLFCEVSVVQDSVNISGHT :: 3.33
37) PDDKLTLFCEVSVVQDSVDISGHT :: 2.41
38) PDDKLTLFCRVSVVQDSVNISGHT :: 1.94
39) PDDKLTLFCEVSVVQDSVNISKHT :: 2.1
40) PDDKLTLFTEVSVVQDSVNISGHT :: 3.83
